- target of assay: T1, human beta CGRP (SEQ ID NO: 81) (human, not fully specified)
- T1 construct: also called human βCGRP; hβCGRP
- T1 peptide: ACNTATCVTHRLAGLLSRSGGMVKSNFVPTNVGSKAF
- method summary: SPR, 37 C, mutein captured, CGRP analyte
Kindly supply the reported Kd values for the records listed here.
Give just the numeric value; pM need not be written.

Challenge: Can you look up the measured Kd of lipocalin mutein SEQ ID NO: 11 (designed binder, biotinylated by NHS chemistry for capture in SPR) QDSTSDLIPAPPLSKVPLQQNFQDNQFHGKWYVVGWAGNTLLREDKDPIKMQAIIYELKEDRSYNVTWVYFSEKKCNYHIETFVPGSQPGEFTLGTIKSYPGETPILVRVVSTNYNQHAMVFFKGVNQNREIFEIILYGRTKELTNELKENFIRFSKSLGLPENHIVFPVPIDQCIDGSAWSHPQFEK for me?
Response given: 7

Challenge: Form field: reported Kd of lipocalin mutein SEQ ID NO: 23 (designed binder, biotinylated by NHS chemistry for capture in SPR) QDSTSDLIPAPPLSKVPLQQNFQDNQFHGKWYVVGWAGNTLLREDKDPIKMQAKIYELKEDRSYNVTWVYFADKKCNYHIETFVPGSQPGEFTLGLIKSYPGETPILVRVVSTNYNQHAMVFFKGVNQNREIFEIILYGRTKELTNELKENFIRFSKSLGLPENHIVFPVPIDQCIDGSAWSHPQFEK
Response given: 1
